- testSummary: gradient 5% acetonitrile 3 min, to 50% in 2 min, to 85% in 15 min, held 3 min, 100 µL/min
- experimentalParameters: column: Zorbax Extend-C18 2.1 x 50 mm; eluents: water / acetonitrile, 0.1% formic acid
RP-LC retention time less than 900 s is TRUE; RP-LC retention time greater than or equal to 900 s is FALSE.

INSERT INTO results (compound, discretelabel) VALUES
  ('COCCc1noc(C2CN(C(=O)C(C)C)C2)n1', 'TRUE'),
  ('O=C(C1CCN(c2nc3ccc(-c4cccnc4)nc3s2)CC1)N1CCCCC1', 'TRUE'),
  ('COC(=O)c1cc(OC)c(OC)cc1NC(=O)c1ccc(CSc2ccccc2)o1', 'FALSE'),
  ('Cc1cccc(Nc2nc(-c3ccncc3)cs2)c1', 'TRUE'),
  ('O=C(CC1CCCC1)N1CCN(c2nc(CN3CCCCC3)cs2)CC1', 'TRUE'),
  ('OCCN1CCN(c2ncnc3c2cnn3-c2cccc(Cl)c2)CC1', 'TRUE'),
  ('CC(C)OCCCNC(=O)CN1c2ccc(Br)cc2-c2ccccc2S1(=O)=O', 'FALSE'),
  ('CCn1nccc1C(=O)N1CCc2c(-c3ccc(OC)cc3)cccc2[C@H]1C', 'FALSE'),
  ('CCCN1C(=O)CN(S(=O)(=O)c2ccc(C)cc2)CC1(C)C(=O)NCc1ccccc1 (stereo unspecified)', 'TRUE');
